Target: NRAS Q61R (Homo sapiens, UniProt P01111+P62937, Q61R)
Sequence (P01111 whole entry Q61R): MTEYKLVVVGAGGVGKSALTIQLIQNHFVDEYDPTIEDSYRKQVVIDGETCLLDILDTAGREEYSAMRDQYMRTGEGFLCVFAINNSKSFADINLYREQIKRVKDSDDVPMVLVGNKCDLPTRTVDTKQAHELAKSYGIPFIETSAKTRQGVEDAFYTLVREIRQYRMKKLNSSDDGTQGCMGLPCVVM
Sequence (P62937 whole entry): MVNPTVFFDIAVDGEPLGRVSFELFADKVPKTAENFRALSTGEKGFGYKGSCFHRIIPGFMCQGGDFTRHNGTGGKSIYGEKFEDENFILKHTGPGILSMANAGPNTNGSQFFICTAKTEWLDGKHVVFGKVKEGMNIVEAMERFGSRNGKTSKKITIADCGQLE
Test: Ras-Raf disruption / FRET / MOA assay (BRAF RBD)
Assay type: biochemical
Description: Disruption of […] Ras-binding Domain (BRAF^RBD) Interaction with K-Ras by Compounds of the Invention (also Called a FRET Assay or an MOA Assay) Note—The following protocol describes a procedure for monitoring disruption of K-Ras G12C (GMP-PNP) binding to BRAF^RBD by a compound of the invention. This protocol may also be executed substituting other Ras proteins or nucleotides, such as K-Ras G12D and K-Ras G13D. […]
REPORTED PROPERTY: IC50

// fetch NRAS Q61R (Homo sapiens, UniProt P01111+P62937, Q61R) IC50 for `CCn1c(-c2cccnc2[C@H](C)OC)c2c3cc(ccc31)-c1cc(O)cc(c1)C[C@H](NC(=O)[C@H](C(C)C)N(C)C(=O)CN(C)C(=O)[C@H]1N[C@@H]1C(F)(F)F)C(=O)N1CCC[C@H](N1)C(=O)OCC(C)(C)C2`
100 to 1000 nM

Alright, here's another molecule for you.
// fetch NRAS Q61R (Homo sapiens, UniProt P01111+P62937, Q61R) IC50 for `CCn1c(-c2cccnc2[C@H](C)OC)c2c3cc(ccc31)-c1cc(O)cc(c1)C[C@H](NC(=O)[C@H](C(C)C)N(C)C(=O)CN(C)C(=O)[C@H]1N[C@H]1C1COC1)C(=O)N1CCC[C@H](N1)C(=O)OCC(C)(C)C2`
100 to 1000 nM

====

biological target: KRAS Q61H (Homo sapiens, UniProt P01116+P62937, Q61H); assay: Disruption of BRAF RBD interaction with Ras (FRET / MOA assay, with Cyclophilin A); format: biochemical; conditions: KRAS Q61H; read-out: KRAS Q61H FRET data IC50
Sequence (P01116 1-169 isoform P01116-2 Q61H limits assumed): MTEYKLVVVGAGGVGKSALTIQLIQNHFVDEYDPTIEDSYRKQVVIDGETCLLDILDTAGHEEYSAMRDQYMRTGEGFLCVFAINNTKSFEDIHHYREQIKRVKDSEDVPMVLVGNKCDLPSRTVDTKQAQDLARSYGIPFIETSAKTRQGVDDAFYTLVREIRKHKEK
Sequence (P62937 whole entry): as the sequence (P62937 whole entry) above
pIC50: −log10 of the molar value.
REPORTED PROPERTY: pIC50

// fetch KRAS Q61H (Homo sapiens, UniProt P01116+P62937, Q61H) pIC50 for `CCn1c(-c2cccnc2[C@H](C)OC)c2c3cc(ccc31)-c1csc(n1)C[C@H](NC(=O)[C@H](C(C)C)N(C)C(=O)N1CCC[C@@H](CN(C)C)C1)C(=O)N1CCC[C@H](N1)C(=O)OCC(C)(C)C2`
7.00 to 8.00

CCn1c(-c2cccnc2[C@H](C)OC)c2c3cc(ccc31)-c1cc(O)cc(c1)C[C@H](NC(=O)[C@H](C(C)C)N(C)C(=O)[C@H]1CCN(C(=O)OC)C1)C(=O)N1CCC[C@H](N1)C(=O)OCC(C)(C)C2 (atropisomer, axis not shown) ?
7.00 to 8.00

Continuing:
// fetch KRAS Q61H (Homo sapiens, UniProt P01116+P62937, Q61H) pIC50 for `CCn1c(-c2cccnc2[C@H](C)OC)c2c3cc(ccc31)-c1cc(O)cc(c1)C[C@H](NC(=O)[C@H](C(C)C)N(C)C(=O)OC1CC1)C(=O)N1CCC[C@H](N1)C(=O)OCC(C)(C)C2`
7.00 to 8.00

`CCn1c(-c2cccnc2[C@H](C)OC)c2c3cc(ccc31)-c1csc(n1)C[C@H](NC(=O)[C@@H](OC(=O)N1CC(OC)C1)C(C)C)C(=O)N1CCC[C@H](N1)C(=O)OCC(C)(C)C2` ?
6.00 to 7.00
